Each recorded value in this set is attributed to patent US4985449A.

- Tested on: Daphnia magna Straus
- measurement_description: Acute Immobilisation Test against Daphnia magna Straus (Test Example 7-II)
- Assay type: in vivo
- recorded_conditions: first instar larvae; up to 48 hours; 23±1° C.; OECD guideline; Probit method
Each item that follows carries a reported EC50 of Daphnia magna Straus (50% immobilisation concentration).

O=C(NC(=O)c1c(F)cccc1F)Nc1ccc(Oc2ccc(C(F)(F)F)cc2Cl)cc1 [drawing 48 (R=H), reference compound]	< 0.4 ppb

Fill blank: measured EC50 of Daphnia magna Straus (50% immobilisation concentration) of the compound O=C(NC(=O)c1c(F)cccc1F)Nc1ccc(Oc2ccc(C(F)(F)F)cc2Cl)c(F)c1 [drawing 47 (R=H), reference compound] is ____.
< 0.4 ppb

Fill blank: measured EC50 of Daphnia magna Straus (50% immobilisation concentration) of the compound O=C(NC(=O)c1c(F)cccc1F)Nc1ccc(-c2ccc(Br)cc2)cc1 [drawing 49 (R=H), reference compound] is ____.
< 0.8 ppb
